# tested-on: Escherichia coli SC (^EcSC) (Escherichia coli, UniProt P0A988)
# Construct: His tag (inferred from the pET15b vector and Ni-NTA purification) (N); made in house; host or cells: E. coli
# Sequence (P0A988 whole entry): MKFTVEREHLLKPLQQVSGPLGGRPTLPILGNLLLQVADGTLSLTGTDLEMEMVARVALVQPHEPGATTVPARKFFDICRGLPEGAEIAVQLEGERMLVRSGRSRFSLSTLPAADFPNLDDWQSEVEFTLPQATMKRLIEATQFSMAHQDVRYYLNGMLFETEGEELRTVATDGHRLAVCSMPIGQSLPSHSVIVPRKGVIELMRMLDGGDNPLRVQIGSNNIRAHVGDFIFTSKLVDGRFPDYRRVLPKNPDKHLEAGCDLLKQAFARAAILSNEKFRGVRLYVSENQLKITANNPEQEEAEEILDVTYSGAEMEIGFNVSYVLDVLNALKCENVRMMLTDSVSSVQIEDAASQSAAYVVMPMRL
# test-summary: biochemical
# Assay type: binding
# experimental-parameters: Kd (nM), ITC at 298.15 K (25° C.)
Square brackets hold non-standard residues; d marks the D form. Peptide text beside a SMILES is read from it. * marks the point of attachment. Acryloyl(3-(3-pyridyl),E) = O=C(/C=C/c1cccnc1)*; Phe(3,4-F2) = N[C@@H](Cc1ccc(F)c(F)c1)C(=O)O; Caffeoyl = O=C(/C=C/c1ccc(O)c(O)c1)*; X7 = C[N+](C)=C(NCC(=O)*)N1CCOCC1; X4 = O=C([O-])[C@H](Cc1ccccc1)N*; NMeQ = CN[C@@H](CCC(N)=O)C(=O)O; Cha = N[C@@H](CC1CCCCC1)C(=O)O; NMeD = CN[C@@H](CC(=O)O)C(=O)O; X1 = O=C(/C=C/c1ccc2ccccc2c1)*
endpoint-name: Kd

Examples with their reported Kd follow.
CC(C)C[C@H](NC(=O)[C@@H]1CCCN1C(=O)[C@H](CC(C)C)NC(=O)[C@H](CC(=O)O)N(C)C(=O)[C@H](CC1CCCCC1)NC(=O)[C@H](CCC(N)=O)NC(=O)/C=C/c1cccnc1)C(=O)O [P44] ({Acryloyl(3-(3-pyridyl),E)}-Q[Cha][NMeD]LPL-OH); 177 nM
CC(C)C[C@H](NC(=O)[C@H](CC(=O)O)NC(=O)[C@H](CC1CCCCC1)NC(=O)[C@H](CCC(N)=O)NC(=O)/C=C/c1cccnc1)C(=O)N[C@@H](Cc1ccccc1)C(=O)O [P16] ({Acryloyl(3-(3-pyridyl),E)}-Q[Cha]DLF-OH); 156 nM
CC(C)C[C@H](NC(=O)[C@H](CC(=O)O)NC(=O)[C@H](CC1CCCCC1)NC(=O)[C@H](CCC(N)=O)NC(=O)CNC(N1CCOCC1)=[N+](C)C)C(=O)N[C@@H](Cc1ccccc1)C(=O)[O-] [P14] (X7-Q[Cha]DL-X4); 276 nM
CC(=O)N(C)[C@@H](CCC(N)=O)C(=O)N[C@@H](CC1CCCCC1)C(=O)N[C@@H](CC(=O)O)C(=O)N[C@@H](CC(C)C)C(=O)N[C@@H](Cc1ccccc1)C(=O)O [P2] (Ac-[NMeQ][Cha]DLF-OH); > 1000 nM
CC(C)C[C@H](NC(=O)[C@H](CC(=O)O)NC(=O)[C@H](CC1CCCCC1)NC(=O)[C@H](CCC(N)=O)NC(=O)/C=C/c1ccc(O)c(O)c1)C(=O)N[C@@H](Cc1ccccc1)C(=O)O [P21] (Caffeoyl-Q[Cha]DLF-OH); 99 nM

Query: Return Kd (reported value) for this molecule: CC(=O)N[C@@H](CCC(N)=O)C(=O)N[C@@H](CC1CCCCC1)C(=O)N(C)[C@@H](CC(=O)O)C(=O)N[C@@H](CC(C)C)C(=O)N[C@@H](Cc1ccc(F)c(F)c1)C(=O)O [P40] (Ac-Q[Cha][NMeD]L[Phe(3,4-F2)]-OH)
Response: 148 nM

Query: Return Kd (reported value) for this molecule: CC(=O)N[C@@H](CCC(N)=O)C(=O)N[C@@H](CC1CCCCC1)C(=O)N(C)[C@@H](CC(=O)O)C(=O)N[C@@H](CC(C)C)C(=O)N1CCC[C@H]1C(=O)N[C@@H](Cc1ccccc1)C(=O)O [P45] (Ac-Q[Cha][NMeD]LPF-OH)
Response: 81 nM

Query: Return Kd (reported value) for this molecule: CC(C)C[C@H](NC(=O)[C@H](CC(=O)O)NC(=O)[C@H](CC1CCCCC1)NC(=O)[C@H](CCC(N)=O)NC(=O)/C=C/c1ccc2ccccc2c1)C(=O)N[C@@H](Cc1ccccc1)C(=O)O [P20] (X1-Q[Cha]DLF-OH)
Response: 89 nM

====

# Kd values compiled below
# tested-on: Escherichia coli SC (^EcSC) (Escherichia coli)
# Construct: His tag (inferred from the pET15b vector and Ni-NTA purification) (N); made in house; host or cells: E. coli
# test-summary: biochemical
# Type: binding
# experimental-parameters: Kd (nM), ITC at 298.15 K (25° C.)
Square brackets hold non-standard residues; d marks the D form. Peptide text beside a SMILES is read from it. * marks the point of attachment. Phe(3,4-Cl2) = N[C@@H](Cc1ccc(Cl)c(Cl)c1)C(=O)O; Hydrocinnamoyl = O=C(CCc1ccccc1)*; Cha = N[C@@H](CC1CCCCC1)C(=O)O; NMeD = CN[C@@H](CC(=O)O)C(=O)O; Pip = O=C(O)[C@@H]1CCCCN1
Reply with just the number (in nM).

Examples with their reported Kd follow.
CC(C)C[C@H](NC(=O)[C@H](CC(=O)O)NC(=O)[C@H](CC1CCCCC1)NC(=O)[C@H](CCC(N)=O)NC(=O)CCc1ccccc1)C(=O)N[C@@H](Cc1ccccc1)C(=O)O [P19] (Hydrocinnamoyl-Q[Cha]DLF-OH); 123
CC(=O)N[C@@H](CCC(N)=O)C(=O)N[C@@H](CC1CCCCC1)C(=O)N[C@@H](CC(=O)O)C(=O)N[C@@H](CC(C)C)C(=O)N1CCCC[C@H]1C(=O)N[C@@H](CC(C)C)C(=O)O [P34] (Ac-Q[Cha]DL[Pip]L-OH); 243

Query: Return Kd (reported value) for this compound: CC(=O)N[C@@H](CCCNC(=N)N)C(=O)N[C@@H](CCC(N)=O)C(=O)N[C@@H](CC1CCCCC1)C(=O)N(C)[C@@H](CC(=O)O)C(=O)N[C@@H](CC(C)C)C(=O)N[C@@H](Cc1ccc(Cl)c(Cl)c1)C(=O)O [P36] (Ac-RQ[Cha][NMeD]L[Phe(3,4-Cl2)]-OH)
Response: 278

====

# tested-on: Escherichia coli SC (^EcSC) (Escherichia coli, UniProt P0A988)
# Construct: His tag (inferred from the pET15b vector and Ni-NTA purification) (N); made in house; host or cells: E. coli
# test-summary: biochemical
# Type: binding
# experimental-parameters: ITC at 25° C.
Numbered stars: 1 amine (or outer) side, 2 acyl side, 3 side chain; on linkers, the order of the positions; unused ones are H or OH. Square brackets hold non-standard residues; d marks the D form. Peptide text beside a SMILES is read from it. * marks the point of attachment. Acryloyl(3-(3-pyridyl),E) = O=C(/C=C/c1cccnc1)*; Phe(3,4-Cl2) = N[C@@H](Cc1ccc(Cl)c(Cl)c1)C(=O)O; Oic = O=C(O)[C@@H]1C[C@@H]2CCCC[C@@H]2N1; NH(4-MeO-phenyl) = COc1ccc(N*)cc1; Cha = N[C@@H](CC1CCCCC1)C(=O)O; NMeD = CN[C@@H](CC(=O)O)C(=O)O; CO = O=C([*:1])[*:2]
endpoint-name: ΔG (kcal mol^-1)

Query: Return ΔG (kcal mol^-1) (reported value) for this molecule: CC(=O)N[C@@H](CCC(N)=O)C(=O)N[C@@H](CC1CCCCC1)C(=O)N[C@@H](CC(=O)O)C(=O)N[C@@H](CC(C)C)C(=O)N1[C@H](C(=O)N[C@@H](Cc2ccc(Cl)c(Cl)c2)C(=O)O)C[C@@H]2CCCC[C@@H]21 [P50] (Ac-Q[Cha]DL[Oic][Phe(3,4-Cl2)]-OH)
Response: -10.1 (± 0.2) kcal mol^-1

Query: Return ΔG (kcal mol^-1) (reported value) for this molecule: CC(C)C[C@H](NC(=O)[C@H](CC(=O)O)N(C)C(=O)[C@H](CC1CCCCC1)NC(=O)[C@H](CCC(N)=O)NC(=O)/C=C/c1cccnc1)C(=O)N1CCC[C@H]1C(=O)N[C@@H](Cc1ccccc1)C(=O)O [P46] ({Acryloyl(3-(3-pyridyl),E)}-Q[Cha][NMeD]LPF-OH)
Response: -10.2 (± 0.1) kcal mol^-1

Query: Return ΔG (kcal mol^-1) (reported value) for this molecule: COc1ccc(NC(=O)N[C@@H](CCC(N)=O)C(=O)N[C@@H](CC2CCCCC2)C(=O)N(C)[C@@H](CC(=O)O)C(=O)N[C@@H](CC(C)C)C(=O)N[C@@H](Cc2ccc(Cl)c(Cl)c2)C(=O)O)cc1 [P39] ({NH(4-MeO-phenyl)-CO}-Q[Cha][NMeD]L[Phe(3,4-Cl2)]-OH)
Response: -9.0 (± 0.01) kcal mol^-1

Query: Return ΔG (kcal mol^-1) (reported value) for this molecule: CC(C)C[C@H](NC(=O)[C@H](CC(=O)O)N(C)C(=O)[C@H](CC1CCCCC1)NC(=O)[C@H](CCC(N)=O)NC(=O)/C=C/c1cccnc1)C(=O)N1[C@H](C(=O)N[C@@H](Cc2ccccc2)C(=O)O)C[C@@H]2CCCC[C@@H]21 [P49] ({Acryloyl(3-(3-pyridyl),E)}-Q[Cha][NMeD]L[Oic]F-OH)
Response: -9.5 (± 0.1) kcal mol^-1
